Here the recorded Ki is given for each entry.
Biological target: full-length hepatitis C viral protein NS3•4A (Hepatitis C virus genotype 1a, UniProt P27958)
Construct: hexa-histidine (N); made in house; host or cells: Sf9 insect cells (baculovirus, pVL1392)
Assay: biochemical
Design: species or system HCV sub-type strain 1a
Conditions: Enzyme Assay 2 (HCV NS3 Peptide Cleavage Assay) activity, apparent Ki class

{"Compound": "CCC[C@H](NC(=O)[C@@H]1C[C@]2(CC(c3cc(Cl)nc4ccccc34)=NO2)CN1C(=O)[C@@H](NC(=O)OC1CCCC1)C(C)(C)C)C(=O)C(=O)NC1CC1", "Ki": "< 100 nM"}
{"Compound": "COc1cc(OC)c(C2=NO[C@]3(C2)C[C@@H](C(=O)NC(CC2CCC2)C(=O)C(=O)NC2CC2)N(C(=O)[C@@H](NC(=O)CC2CCOCC2)C(C)(C)C)C3)cc1Cl (some centres unmarked)", "Ki": "100 to 500 nM"}
{"Compound": "CCC[C@H](NC(=O)[C@@H]1C[C@]2(CC(c3ccc(F)c(Cl)c3)=NO2)CN1C(=O)[C@@H](NC(=O)CC1CCCCCC1)C(C)(C)C)C(=O)C(=O)NC", "Ki": "< 100 nM"}
{"Compound": "CCC[C@H](NC(=O)[C@@H]1C[C@]2(CC(c3cc(Cl)cc4c3OCOC4)=NO2)CN1C(=O)[C@@H](NC(=O)CC1CCCCC1)C(C)(C)C)C(=O)C(=O)NC1CC1", "Ki": "< 100 nM"}
{"Compound": "CCC[C@H](NC(=O)[C@@H]1C[C@]2(CC(c3cccc(Cl)c3)=NO2)CN1C(=O)[C@@H](NC(=O)CC1CCCCC1)C(C)(C)C)C(=O)C(=O)NCc1csc(-c2ccccc2)n1", "Ki": "100 to 500 nM"}
